Assay: AUCinfinity in Sprague-Dawley rat at 10 mg/kg, po measured upto 24 hrs by LC-MS/MS analysis
Assay type: ADME, organism-based
Set-up: route oral, dose 10 mg/kg, time <=24
Settings: in vivo
endpoint name: AUC(0-inf) (ng·h/mL)

INSERT INTO assay_data (smiles_record, recorded_result) VALUES
  ('COc1cccc(C(=O)OCCCCNC(=N)N)c1OC', 1680);

====

System: H9c2
Assay: Antioxidant activity in rat H9c2 cells assessed as protection against H2O2-induced hypoxic injury by measuring cell viability at 10 uM preincubated for 4 hrs followed by H2O2 stimulation for 1 hr by MTT assay relative to control
Format: functional
Let's look at some compounds and their measured Activity.
endpoint name: Activity

INSERT INTO measurements (compound, recorded_result) VALUES
  ('CC(=O)Oc1ccc(C(=O)OCCCCNC(=N)N)cc1', '52.7%'),
  ('N=C(N)NCCCCOC(=O)c1ccc2[nH]ccc2c1', '58.9%'),
  ('COc1cc(C(=O)OCCN(C)C)cc(OC)c1O', '48.5%'),
  ('COc1cc(/C=C/C(=O)OCCCCNC(=N)N)cc(OC)c1OC', '61.4%'),
  ('COc1ccc(OC)c(C(=O)OCCCCNC(=N)N)c1', '57.7%'),
  ('N=C(N)NCCCCOC(=O)c1ccco1', '53.2%'),
  ('COc1cc(C(=O)OC(C)CNC(=N)N)cc(OC)c1O (stereo not given)', '54.2%'),
  ('N=C(N)NCCCCOC(=O)c1ccc([N+](=O)[O-])cc1', '59.6%'),
  ('COc1cc(C(=O)OCC2CCN(C(=N)N)CC2)cc(OC)c1O', '61%'),
  ('COc1cc(OC)c(C(=O)OCCCCNC(=N)N)c(OC)c1', '53.4%');

====

Experiment: Half life in Sprague-Dawley rat at 10 mg/kg, po measured upto 24 hrs by LC-MS/MS analysis
Assay type: ADME, organism-based
Settings: in vivo
endpoint name: half-life

INSERT INTO assay_data (smiles_record, recorded_result) VALUES
  ('COc1cccc(C(=O)OCCCCNC(=N)N)c1OC', '4.87 h');

====

Test: AUClast in Sprague-Dawley rat at 10 mg/kg, po measured upto 24 hrs by LC-MS/MS analysis
Type: ADME, organism-based
Parameters: route oral, dose 10 mg/kg, time <=24
Settings: in vivo
endpoint name: AUC(0-t) at 24 h (ng·h/mL)

INSERT INTO results (smiles_record, measurement_unit, recorded_result) VALUES
  ('COc1cccc(C(=O)OCCCCNC(=N)N)c1OC', 'ng·h/mL', 1630);

====

Assay: Cmax in Sprague-Dawley rat at 1 mg/kg, iv measured upto 24 hrs by LC-MS/MS analysis
Assay type: ADME, organism-based
Set-up: route intravenous, dose 1 mg/kg, time <=24
Details: in vivo
endpoint name: Cmax (ng/mL)

INSERT INTO measurements (smiles_record, measurement_unit, recorded_result) VALUES
  ('COc1cccc(C(=O)OCCCCNC(=N)N)c1OC', 'ng/mL', 764);

====

Tested on: H9c2
Assay: Antioxidant activity in rat H9c2 cells assessed as protection against H2O2-induced hypoxic injury by measuring cell viability at ED50 concentration preincubated for 4 hrs followed by H2O2 stimulation for 1 hr by MTT assay relative to control
Type: functional
Conditions: time 5 hrs
Let's look at some compounds and their measured Activity.
endpoint name: Activity (%)

INSERT INTO results (smiles_record, recorded_result) VALUES
  ('COc1cc(C(=O)OCCOCCNC(=N)N)cc(OC)c1O', 58.8),
  ('Cc1cccc(C(=O)OCCCCNC(=N)N)c1', 57.4),
  ('CCN(CC)CCOC(=O)c1cc(OC)c(O)c(OC)c1', 51.7),
  ('COc1cc(C(=O)OCCCCNC(=N)N)cc(OC)c1O', 55.1),
  ('COc1cccc(C(=O)OCCCCNC(=N)N)c1OC', 62.8);

====

Assay: Half life in Sprague-Dawley rat at 1 mg/kg, iv measured upto 24 hrs by LC-MS/MS analysis
Format: ADME, organism-based
Details: in vivo
endpoint name: half-life (h)

INSERT INTO assay_data (smiles_record, endpoint_name, recorded_result) VALUES
  ('COc1cccc(C(=O)OCCCCNC(=N)N)c1OC', 'half-life', 1.63);

====

Tested on: H9c2
Assay: Antioxidant activity in rat H9c2 cells assessed as protection against H2O2-induced hypoxic injury by measuring cell viability at 10 uM preincubated for 4 hrs followed by H2O2 stimulation for 1 hr by MTT assay relative to control
Format: functional
Let's look at some compounds and their measured Activity.
endpoint name: Activity (%)

INSERT INTO assay_data (smiles_record, recorded_result) VALUES
  ('CC(=O)Oc1ccccc1C(=O)OCCCCNC(=N)N', 58.3),
  ('COc1cc(C(=O)OCCCCN)cc(OC)c1O', 56.2),
  ('COc1cc(C(=O)OCCCCCNC(=N)N)cc(OC)c1O', 50.1),
  ('N=C(N)NCCCCOC(=O)C1CCCCC1', 58.8),
  ('COc1ccc(C(=O)OCCCCNC(=N)N)c(OC)c1OC', 57.8),
  ('COc1ccc(C(=O)OCCCCNC(=N)N)cc1', 58.6),
  ('N=C(N)NCCCCOC(=O)c1c(F)cc(F)cc1F', 60.7),
  ('N=C(N)NCCCCO', 51.4),
  ('CC(=O)Oc1cccc(C(=O)OCCCCNC(=N)N)c1', 62.8),
  ('COc1cccc(C(=O)OCCCCNC(=N)N)c1OC', 65.3),
  ('COc1cc(C(=O)OCC2CCN(C(=N)N)CC2)cc(OC)c1OC(C)=O', 47),
  ('COc1cc(C(=O)OCCN2CCOCC2)cc(OC)c1O', 50.5),
  ('COc1cc(C(=O)OCCNC(=N)N)cc(OC)c1O', 61.9),
  ('COc1cc(C(=O)OCCCN(C)C)cc(OC)c1O', 61.7),
  ('COc1cc(C(=O)OCCCCNC(=N)N)ccc1OC(C)=O', 56.4),
  ('COc1cc(C(=O)OCCCCCCNC(=N)N)cc(OC)c1O', 58.9),
  ('COc1cc(C(=O)OCCCCNC(=N)N)cc(OC)c1OC', 53.3),
  ('COc1cc(C(=O)OCCCNC(=N)N)cc(OC)c1O', 55.2);

Sourced from ChEMBL document CHEMBL4765343
